- test-description: Cytotoxicity in mock-infected MT-4 cells, MTT method
- Assay type: cell-based
- stated-conditions: human, mock-infected MT-4 cells, CC50, mock-infected MT-4 cells

compound	CC50 at 5 days
Cc1cc(C)cc(S(=O)(=O)c2c(C(=O)NCCCCCNS(=O)(=O)c3ccc([N+](=O)[O-])cc3)[nH]c3ccc(Cl)cc23)c1 [R3L5]	> 198 µM
Cc1cc(C#N)cc(C)c1Oc1nc(Nc2ccc(C#N)cc2)nc(N)c1Br [ETR, Etravirine, reference compound]	> 4.59 µM
O=C1Nc2ccc(Cl)cc2[C@@](C#CC2CC2)(C(F)(F)F)O1 [EFV, Efavirenz, reference compound]	> 6.34 µM
Cc1cc(C)cc(S(=O)(=O)c2c(C(=O)NCCCCNS(=O)(=O)c3ccc(F)cc3)[nH]c3ccc(Cl)cc23)c1 [R4L4]	> 211 µM
Cc1cc(C)cc(S(=O)(=O)c2c(C(=O)NCCNS(=O)(=O)c3ccc(F)cc3)[nH]c3ccc(Cl)cc23)c1 [R4L2]	> 222 µM
